- system_under_test: Endothelin receptor type B (Rattus norvegicus, UniProt P21451)
- Sequence (P21451 whole entry): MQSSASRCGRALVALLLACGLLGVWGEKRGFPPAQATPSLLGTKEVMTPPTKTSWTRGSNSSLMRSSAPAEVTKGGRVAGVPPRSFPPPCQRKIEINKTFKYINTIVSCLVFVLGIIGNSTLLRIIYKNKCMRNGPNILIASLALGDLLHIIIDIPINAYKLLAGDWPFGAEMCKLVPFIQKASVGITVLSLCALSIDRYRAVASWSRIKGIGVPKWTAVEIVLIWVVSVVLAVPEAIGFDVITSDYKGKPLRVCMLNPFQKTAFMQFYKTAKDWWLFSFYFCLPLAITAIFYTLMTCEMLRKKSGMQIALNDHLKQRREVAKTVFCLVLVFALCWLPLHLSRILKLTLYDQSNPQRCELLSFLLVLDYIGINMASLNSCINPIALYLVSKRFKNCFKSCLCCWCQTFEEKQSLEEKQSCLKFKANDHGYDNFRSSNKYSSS
- test_details: Inhibition of SRTX-6c stimulated arachidonic acid release in CHO cells expressing rat ET- B receptors
Structures can show the parent of a compound that is named as a salt. Numbered stars: 1 amine (or outer) side, 2 acyl side, 3 side chain; on linkers, the order of the positions; unused ones are H or OH. Square brackets hold non-standard residues; d marks the D form. Peptide text beside a SMILES is read from it. * marks the point of attachment. Diphenylacetyl = O=C(C(c1ccccc1)c1ccccc1)*; Dip = N[C@H](C(=O)O)C(c1ccccc1)c1ccccc1; Cyclohexanecarbonyl = O=C(C1CCCCC1)*; NHcHex = C1CCC(N*)CC1; CO = O=C([*:1])[*:2]; Propionyl = CCC(=O)*; Tfa = O=C(C(F)(F)F)*; Bz = O=C(c1ccccc1)*
This listing pairs compounds with measured pIC50.
pIC50 here is simply -log10 of the concentration when that concentration is written in mol/L.

Endpoint output: pIC50 of CC[C@H](C)[C@H](NC(=O)[C@H](CC(=O)O)NC(=O)[C@H](CC(C)C)NC(=O)[C@@H](NC(=O)NC1CCCCC1)C(c1ccccc1)c1ccccc1)C(=O)N[C@H](C(=O)N[C@@H](Cc1c[nH]c2ccccc12)C(=O)O)[C@@H](C)CC ({NHcHex-CO}-[Dip]LDIIW-OH) . Value?
6.68

Thanks! And CC[C@H](C)[C@H](NC(=O)[C@H](CC(=O)O)NC(=O)[C@H](CC(C)C)NC(=O)[C@@H](NC(=O)C1CCCCC1)C(c1ccccc1)c1ccccc1)C(=O)N[C@H](C(=O)N[C@@H](Cc1c[nH]c2ccccc12)C(=O)O)[C@@H](C)CC (Cyclohexanecarbonyl-[Dip]LDIIW-OH) ?
6.25

New cases:
What value of measured pIC50 is listed for CC[C@H](C)[C@H](NC(=O)[C@H](CC(=O)O)NC(=O)[C@H](CC(C)C)NC(=O)[C@@H](NC(=O)C(F)(F)F)C(c1ccccc1)c1ccccc1)C(=O)N[C@H](C(=O)N[C@@H](Cc1c[nH]c2ccccc12)C(=O)O)[C@@H](C)CC (Tfa-[Dip]LDIIW-OH) ?
6.54

// repeat for CCC(=O)N[C@H](C(=O)N[C@@H](CC(C)C)C(=O)N[C@@H](CC(=O)O)C(=O)N[C@H](C(=O)N[C@H](C(=O)N[C@@H](Cc1c[nH]c2ccccc12)C(=O)O)[C@@H](C)CC)[C@@H](C)CC)C(c1ccccc1)c1ccccc1 (Propionyl-[Dip]LDIIW-OH) and report
6.66

# iterate: CC[C@H](C)[C@H](NC(=O)[C@H](CC(=O)O)NC(=O)[C@H](CC(C)C)NC(=O)[C@@H](NC(=O)c1ccccc1)C(c1ccccc1)c1ccccc1)C(=O)N[C@H](C(=O)N[C@@H](Cc1c[nH]c2ccccc12)C(=O)O)[C@@H](C)CC (Bz-[Dip]LDIIW-OH)
6.54

Same thing, different compound: CC[C@H](C)[C@H](NC(=O)[C@H](CC(=O)O)NC(=O)[C@H](CC(C)C)NC(=O)[C@@H](NC(=O)C(c1ccccc1)c1ccccc1)C(c1ccccc1)c1ccccc1)C(=O)N[C@H](C(=O)N[C@@H](Cc1c[nH]c2ccccc12)C(=O)O)[C@@H](C)CC (Diphenylacetyl-[Dip]LDIIW-OH)
5.03

Ok, now CC[C@H](C)[C@H](NC(=O)[C@H](CC(=O)O)NC(=O)[C@H](CC(C)C)NC(=O)[C@@H](NC(=O)NC)C(c1ccccc1)c1ccccc1)C(=O)N[C@H](C(=O)N[C@@H](Cc1c[nH]c2ccccc12)C(=O)O)[C@@H](C)CC ({NHMe-CO}-[Dip]LDIIW-OH)
7.70

This collection of values is drawn from ChEMBL document CHEMBL1128478.
